Data provenance is patent US20230408517A1.

Below, each of the binders is paired with its reported percent blocking value.
# TARGET: SARS-CoV spike RBD (R306-F527), C-terminal 6-His (SARS-CoV, UniProt P59594 306-527)
# EXPERIMENTAL_DETAILS: flow cytometry, blocking of binding to hACE-2 cells

[
  {
    "BINDER": "1035211 (antibody, V domains shown) VH: QVQLQQSGAELARPGASVKMSCKASGYTFTNYTMHWVKQRPGQGLEWIGYINPSSGYTNYNQKFKDKATLTADKSSSTAYMQLSSLTSEDSAVYYCARRNPLYAMDYWGQGTSVTVSS VL: DIKMTQSPSSMYASLGERVTITCKASQDINSYLNWFQQKPGKSPKTLIYRANRLVDGVPSRFSGSGSGQDYSLTISSLEFEDMGIYYCLQYDEFPYTFGGGTKLEIK",
    "percent blocking, %": 0.1
  },
  {
    "BINDER": "1035419 (antibody, V domains shown) VH: QVQLKQSGAELVRPGASVKLSCKTSGYIFTSYWIHWIKQRSGQGLEWIARIYPGTGSTYNNEKFKGKATLTADKSSSTAYMQLSSLKSEDSAVYFCARGEDNLYFYAMDYWGQGTSVTVSS VL: NIVLTQSPASLAVSLGQRATISCRASESVDSYGASFMHWCQQKPGQPPKLLIYLASNLESGVPARFSGSGSRTDFTLTIDPVEADDAATYYCQQNYEDPWTFGGGTKLEIK",
    "percent blocking, %": 44.1
  },
  {
    "BINDER": "1035716 (antibody, V domains shown) VH: EVLLQQSGPELVKPGASVKIPCKASGYTFTDYNMDWVKQSHGKSLEWIGDINPNNGGTIYNQKFKGKATLTVDKSSSTAYMELRSLTSEDTAVYYCAREGYGNYFDYWGQGTTLTVSS VL: DILLTQSPAILSVSPGERVSFSCRASQSIGTSIHWYQQRTNGSPRLLIKYASESISGIPSRFSGSGSGTDYTLSINSVESEDIADYYCQQSYSWPTTFGAGTKLELK",
    "percent blocking, %": 68.7
  },
  {
    "BINDER": "1035762 (antibody, V domains shown) VH: EVQLQQSGPELVKPGASVKISCKTSGYTFTEYTMHWVKQSHGKSLEWIGGINPNNGDTGYNQKFKGKATLTVDKSSSTAYMELRSLTFEDSAVYYCARDGYPLYYAMDYWGQGTSVTVSS VL: DIQMTQSPSSLSASLGERVSLTCRASQEISGYLCWLQQKPDGTIKRLIYAASTLDSAVPKRFSGSRSGSDYSLTISSLESEDFADFYCLQYASYPWTFGGGTKLEIK",
    "percent blocking, %": 0
  },
  {
    "BINDER": "1035709 (antibody, V domains shown) VH: EVQLQQSGPELVKPGASVKISCKTSGYTFTEYTMHWVKQSHGKSLEWIGGINPNIVDTGYNQKFKGKATLTVDKSSSTAYMELRSLTSEDSAVYYCARDGYPLYYAMDYWGQGTSVTVSS VL: DIQMTQSPSSLSASLGERVSLTCRASQEISGYLSWLQQKPDGTIKRLIYAASTLDSGVPKRFSGSRSGSDYSLTISSLESEDFADYYCLQYASYPWTFGGGTKLEIK",
    "percent blocking, %": 0
  }
]
